tested on: Plasmodium falciparum; assay: Antimalarial activity against chloroquine-resistant Plasmodium falciparum W2 after 48 hrs by LDH reporter assay; assay type: functional, organism-based; settings: W2, 48 h, read-out: IC50
pIC50: −log10 of the molar value.
Everything with pIC50 lower than 6 is rule not met; everything else, including exactly 6, is rule met.

[in] Can CC(/C=C/C(=O)NO)=C\[C@@H](C)C(=O)c1ccc(N(C)C)cc1 be said to have pIC50 at or above 6?
[out] rule met

[in] Param item: O=C(CCCCCCCC(=O)NO)NO [AZELAIC BIS HYDROXAMIC ACID]
[out] rule not met

[in] Param item: C[C@@H]1CC[C@H]2[C@@H](C)C(=O)O[C@@H]3O[C@@]4(C)CC[C@@H]1[C@]32OO4
[out] rule met

[in] Param item: O=C(NO)c1ccccc1O [SALICYLHYDROXAMIC ACID]
[out] rule not met
